B1: GLTSCR2 (parent)
chain: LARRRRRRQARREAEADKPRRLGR

- Variants of: B1
- assay.remarks: protein stability index of a GFP-peptide fusion (GPS, HEK-293T) (PSI 1-6); higher = more stable;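 note: lentivirally expressed fusions sorted by FACS into six bins by GFP to DsRed ratio, PSI derived from sequencing read proportions per bin multiplied by bin number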
- experimental.context: c terminus: a fixed tail appended
parameter: protein stability index
Format: numeric value only, no unit, no commentary.

Some variants with known protein stability index results, for comparison:
Any idea what protein stability index was measured for R20K ?
4.64

Try this variant too: R6Y
4.13

Try this variant too: E13S
4.26

Try this variant too: R20A
4.25

Further cases:
Any idea what protein stability index was measured for R7F ?
4.28

Try this variant too: R7S
4.66

Try this variant too: G23P
4.77

Try this variant too: R11C
4.64

Try this variant too: A14L
4.33

Try this variant too: R20H
5.18

Try this variant too: A10H
5.1

Try this variant too: R3M
4.41

Try this variant too: R20C
4.45

Try this variant too: E15K
3.6

Try this variant too: L22S
5.13

Try this variant too: P19S
4.16

Try this variant too: R3S
4.91

Try this variant too: L22K
4.71

Try this variant too: G23Q
4.51

Try this variant too: A16G
4.09

Try this variant too: R7G
4.71

Try this variant too: R3P
5.54

Try this variant too: R7E
4.93

Try this variant too: R7D
4.88

Try this variant too: L1A
5.29

Ref: the supplement of paper PMC10567573
